Data provenance: patent US8865688B2

Quick list: AUC per entry.
METHOD: Steady state pharmacokinetics, 3 treatments of 4 days: Asacol 800 mg BID, granulated mesalamine formulation 800 mg BID and 1600 mg QD
Format: in vivo, human
TEST_PARAMETERS: human, plasma, oral, 1600 mg, AUC0-24, Day 4, after MP 1600 mg QD; converted from μmol * h/L; read-out: AUC
Expressed in ng·h/mL, but write only the number.

                                   compound  test_result
0  CC(=O)Nc1ccc(O)c(C(=O)O)c1 [N-Ac-5-ASA, N-acetyl-5-aminosalicylic acid]        45800

The value of AUC measured for the compound Nc1ccc(O)c(C(=O)O)c1 [Mesalamine (5-ASA), 5-aminosalicylic acid] turned out to be 14800
